Where these numbers come from: patent US20030190377A1

List of IC50 for H+/K+-ATPase values.
Molecular target: H+/K+-ATPase (Rattus norvegicus)
Sequence (P09626 whole entry): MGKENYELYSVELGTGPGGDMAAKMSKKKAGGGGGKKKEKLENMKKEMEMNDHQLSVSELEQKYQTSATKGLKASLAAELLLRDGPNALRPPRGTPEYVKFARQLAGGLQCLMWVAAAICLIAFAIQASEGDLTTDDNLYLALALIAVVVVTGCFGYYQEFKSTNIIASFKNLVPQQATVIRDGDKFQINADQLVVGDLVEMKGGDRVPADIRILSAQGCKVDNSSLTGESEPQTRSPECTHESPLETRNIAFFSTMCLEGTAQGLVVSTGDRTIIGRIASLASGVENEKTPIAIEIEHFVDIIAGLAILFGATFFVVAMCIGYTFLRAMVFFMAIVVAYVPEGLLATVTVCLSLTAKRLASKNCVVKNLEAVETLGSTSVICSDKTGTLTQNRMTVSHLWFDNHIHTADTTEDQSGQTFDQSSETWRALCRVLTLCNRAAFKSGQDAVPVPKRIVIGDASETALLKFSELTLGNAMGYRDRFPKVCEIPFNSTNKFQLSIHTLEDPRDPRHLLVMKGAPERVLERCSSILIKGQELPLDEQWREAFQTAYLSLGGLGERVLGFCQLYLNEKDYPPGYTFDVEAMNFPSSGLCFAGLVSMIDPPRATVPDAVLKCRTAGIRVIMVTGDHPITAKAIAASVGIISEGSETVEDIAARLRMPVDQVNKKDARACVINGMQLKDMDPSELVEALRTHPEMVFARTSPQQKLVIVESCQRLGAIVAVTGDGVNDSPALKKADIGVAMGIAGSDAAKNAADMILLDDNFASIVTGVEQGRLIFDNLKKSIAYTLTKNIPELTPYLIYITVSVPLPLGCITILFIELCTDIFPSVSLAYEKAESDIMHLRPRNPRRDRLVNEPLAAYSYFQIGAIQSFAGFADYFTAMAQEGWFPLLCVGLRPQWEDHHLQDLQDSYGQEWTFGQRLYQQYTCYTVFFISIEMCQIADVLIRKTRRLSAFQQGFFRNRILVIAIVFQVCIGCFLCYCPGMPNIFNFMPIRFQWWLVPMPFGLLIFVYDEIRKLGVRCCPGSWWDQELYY
Sequence (P18598 whole entry partner): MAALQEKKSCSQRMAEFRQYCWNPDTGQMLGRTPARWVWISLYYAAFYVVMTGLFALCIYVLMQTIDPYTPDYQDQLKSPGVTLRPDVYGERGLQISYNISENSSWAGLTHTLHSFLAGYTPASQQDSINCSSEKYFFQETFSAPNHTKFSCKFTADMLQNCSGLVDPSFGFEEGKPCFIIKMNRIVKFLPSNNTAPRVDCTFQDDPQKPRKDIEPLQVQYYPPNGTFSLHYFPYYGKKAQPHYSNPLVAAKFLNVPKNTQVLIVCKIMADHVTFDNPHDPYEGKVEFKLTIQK
Test: H+/K+-ATPase activity inhibition test
Conditions: stomach enzyme, pre-incubated 37° C. 30 minutes, pH 7.4
The reply should contain only the number, in µg/mL.

[
  {
    "molecule": "CC(C)=CCC[C@](C)(O)[C@H]1CC[C@]2(C)[C@@H]1[C@H](O)C[C@@H]1[C@@]3(C)CC[C@H](O[C@@H]4O[C@H](CO)[C@@H](O)[C@H](O)[C@H]4O[C@@H]4O[C@H](CO)[C@@H](O)[C@H](O)[C@H]4O)C(C)(C)[C@@H]3CC[C@]12C [20(S)-ginsenoside Rg3]",
    "system.tested": "H+/K+-ATPase (Rattus norvegicus)",
    "IC50 for H+/K+-ATPase (µg/mL)": 600
  },
  {
    "molecule": "CC(C)=CCC[C@](C)(O)[C@H]1CC[C@]2(C)[C@@H]1[C@H](O)C[C@@H]1[C@@]3(C)CC[C@H](O[C@@H]4O[C@H](CO)[C@@H](O)[C@H](O)[C@H]4O)C(C)(C)[C@@H]3CC[C@]12C [20(S)-ginsenoside Rh2]",
    "system.tested": "H+/K+-ATPase (Rattus norvegicus)",
    "IC50 for H+/K+-ATPase (µg/mL)": 500
  },
  {
    "molecule": "CC(C)=CCC[C@](C)(O)[C@H]1CC[C@]2(C)[C@@H]1[C@H](O)C[C@@H]1[C@@]3(C)CC[C@H](O[C@@H]4O[C@H](CO)[C@@H](O)[C@H](O)[C@H]4O[C@@H]4O[C@H](CO)[C@@H](O)[C@H](O)[C@H]4O)C(C)(C)[C@@H]3CC[C@]12C [20(R)-ginsenoside Rg3]",
    "system.tested": "H+/K+-ATPase (Rattus norvegicus)",
    "IC50 for H+/K+-ATPase (µg/mL)": 700
  }
]

Now, please, on to the next molecule.
Problem: // map CC(C)=CCC[C@@](C)(O)[C@H]1CC[C@]2(C)[C@@H]1[C@H](O)C[C@@H]1[C@@]3(C)CC[C@H](O[C@@H]4O[C@H](CO)[C@@H](O)[C@H](O)[C@H]4O)C(C)(C)[C@@H]3CC[C@]12C [20(R)-ginsenoside Rh2] to recorded IC50 for H+/K+-ATPase (system: H+/K+-ATPase (Rattus norvegicus))
Result: 500
